- MEASUREMENT PROTOCOL: NCI Yeast Anticancer Drug Screen. Data for the rad14 strain (AID 159);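 further: 0% = growth of vehicle-treated control cultures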
- CONDITION SET: S. cerevisiae rad14 strain growth inhibition; at 1.2 µM
Compounds without any hit were thinned out: in the full panel of roughly 79,000, 15% have a hit. Activity calls are given as the source filed them. No stated cut-off is given here; in the data, active means growth inhibition above about 70%; inactive means the rest.
The categories you may choose from are t for active, f for inactive

Examples from the recorded data:
>  <MOLECULE>
CCCCCCCCCCCCCCCCP(=O)(O)OP(=O)(O)OCC1OC(n2ccc(N)nc2=O)C(O)C1O (centres undefined)

>  <GROUP LABEL>
f

$$$$
>  <MOLECULE>
COc1cc(C2c3cc4c(cc3[C@@H](Nc3ccc(N)cc3)C3COC(=O)[C@H]23)OCO4)cc(OC)c1O (some centres undefined)

>  <GROUP LABEL>
f

$$$$
>  <MOLECULE>
O=C1C=CC(=O)C1(Br)Br

>  <GROUP LABEL>
f

$$$$
>  <MOLECULE>
C[N+]1(CCCl)CC[N+](C)(CCCl)CC1 (centres undefined)

>  <GROUP LABEL>
f

$$$$
>  <MOLECULE>
O=[N+]([O-])c1cc(S(=O)(=O)F)ccc1Cl

>  <GROUP LABEL>
f

$$$$

Test call for this molecule, please: CC1CC(C)CC(C)C(O)/C(C#N)=C/C=C/CC(C2CCCC2C(=O)O)OC(=O)CC(O)C(C)C1 (centres undefined)
t

Test call for this molecule, please: COC1C(O)C(C)OC(OC2C(Oc3cccc4c(O)c5c(=O)oc6ccc(C)c7c(=O)oc(c34)c5c67)OC(C)C(O)C2O)C1O (centres undefined)
f

Test call for this molecule, please: CCNCC(=O)O[C@]1(CC)C(=O)OCc2c1cc1n(c2=O)Cc2cc3ccccc3nc2-1
f

Test call for this molecule, please: CC[C@]1(O)CC(OC2CC(N(C)C)C(O)C(C)O2)c2c(cc3c(c2O)C(=O)c2c(O)cccc2C3=O)[C@@H]1C(=O)OC (some centres undefined)
f

###

- MEASUREMENT PROTOCOL: NCI Yeast Anticancer Drug Screen. Data for the cln2 rad14 strain (AID 165);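 further: 0% = growth equal to vehicle treated cultures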
- CONDITION SET: S. cerevisiae cln2 rad14 strain, at 5.0 µM (retest, dose inferred, filed as 0.5)
- Experimental: Growth inhibition of yeast strains with defined genetic alterations is measured as a screen for potential anti-cancer activity. Selected strains with alterations in DNA damage repair or cell cycle control were exposed to compounds and growth inhibition was measured relative to vehicle treated controls. The strain used in this assay is cln2 rad14
The panel holds about 79,000 compounds, 15% with a hit somewhere; the sample as a whole holds those more often. Activity calls are given as the source filed them. No stated cut-off is given here; in the data, active means growth inhibition above about 70%; inactive means the rest.
The categories you may choose from are label 1 for active, label 0 for inactive

>  <COMPOUND>
CCc1ccc2c(c1)N(CCCN(CCCl)CCCl)c1ccccc1S2

>  <GROUP LABEL>
label 0

$$$$

Test call for this compound, please: C[C@]12CC[C@H](OC(=O)COc3ccc(N(CCCl)CCCl)cc3)C[C@@H]1CC[C@@H]1[C@@H]2CC[C@]2(C)NC(=O)CC[C@@H]12
label 0

Test call for this compound, please: CCCOc1ccc(/C=C/[N+](=O)[O-])cc1
label 0

Test call for this compound, please: O=C1N[C@@H]2C(=C[C@H](O)[C@@H](O)[C@H]2O)c2cc3c(c(O)c21)OCO3
label 0

Test call for this compound, please: CCC[CH2][Sn]([CH2]CCC)([S]C#N)[S]C#N
label 1

Test call for this compound, please: COc1ccc(/C=C/[N+](=O)[O-])c(OC)c1OC
label 0

###

- MEASUREMENT PROTOCOL: NCI Yeast Anticancer Drug Screen. Data for the rad52 strain (AID 147);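 further: 0% = growth of vehicle-treated control cultures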
- CONDITION SET: S. cerevisiae rad52 mutant growth inhibition; at 100.0 µM
The panel holds about 79,000 compounds, 15% with a hit somewhere; the sample as a whole holds those more often. Calls of active or inactive are those of the source. No stated cut-off is given here; in the data, active means growth inhibition above about 70%; inactive means the rest.
The categories you may choose from are 1 (yes) for active, 0 (no) for inactive

Examples from the recorded data:
>  <COMPOUND>
C[C@]12CC[C@H](O)CC1=CC[C@@H]1[C@@H]2CC[C@]2(C)C(=O)CC[C@@H]12

>  <GROUP LABEL>
1 (yes)

$$$$
>  <COMPOUND>
CC1=C(N2CC2)C(=O)c2ccccc2C1=O

>  <GROUP LABEL>
1 (yes)

$$$$
>  <COMPOUND>
COc1cccc2c1C(=O)c1c(O)c3c(c(O)c1C2=O)C[C@@](O)(/C(C)=N\O)C[C@@H]3OC1CC(N)C(O)C(C)O1 (some centres undefined)

>  <GROUP LABEL>
1 (yes)

$$$$
>  <COMPOUND>
CC1=C(O)C(=O)C=C2C1=CC=C1[C@@]2(C)CCC2(C)[C@@H]3C[C@@H](C)C(=O)C[C@]3(C)CC[C@]12C (some centres undefined)

>  <GROUP LABEL>
1 (yes)

$$$$
>  <COMPOUND>
S=C1NC2(CCCCC2)NC12CCCCC2

>  <GROUP LABEL>
0 (no)

$$$$

Test call for this compound, please: [O-][n+]1c2cccc(O)c2[n+]([O-])c2cccc(O)c21
1 (yes)

Test call for this compound, please: CC1=C2C(=C[C@@](C)(CO)[C@@H]2O)C(=O)[C@](C)(O)C12CC2
1 (yes)

Test call for this compound, please: CCOP(=O)(CC(C)P(=O)(OCC)OCC)OCC.C[CH2][Sn]([Cl])([Cl])[CH2]C (centres undefined)
1 (yes)

Test call for this compound, please: N#Cc1cc(N(CCCl)CCCl)c([N+](=O)[O-])cc1[N+](=O)[O-]
1 (yes)

Test call for this compound, please: O=P(CCCCP(=O)(c1ccccc1)c1ccccc1)(c1ccccc1)c1ccccc1.[Cl][Sn]([Cl])([c]1ccccc1)[c]1ccccc1
1 (yes)

Test call for this compound, please: Cc1ccc2c(c1N)C(=O)c1ccccc1C2=O
1 (yes)

Test call for this compound, please: O=[N+]([O-])c1cc(S(=O)(=O)F)ccc1Cl
1 (yes)

Test call for this compound, please: COC1C(O)C(C)OC(OC2C(Oc3cccc4c(O)c5c(=O)oc6ccc(C)c7c(=O)oc(c34)c5c67)OC(C)C(O)C2O)C1O (centres undefined)
1 (yes)

Test call for this compound, please: O=[N+]([O-])c1oc2ccc3ccccc3c2c1CCO
1 (yes)

Test call for this compound, please: O=Cc1ccc(C(F)(F)F)cc1.[C-]#[O+].[C-]#[O+].[C-]#[O+].[Cr]
1 (yes)

Test call for this compound, please: Cc1c(N)nc([C@H](CC(N)=O)NC[C@H](N)C(N)=O)nc1C(=O)N[C@H](C(=O)N[C@H](C)[C@@H](O)[C@H](C)C(=O)N[C@H](C(=O)NCCc1nc(-c2nc(C(=O)NCCC[S+](C)C)cs2)cs1)[C@@H](C)O)C(OC1OC(CO)C(O)C(O)C1OC1OC(CO)C(O)C(OC(N)=O)C1O)c1cnc[nH]1 (some centres undefined)
1 (yes)

Test call for this compound, please: CC1CC(Br)C(=O)O1 (centres undefined)
1 (yes)

Test call for this compound, please: O=C(O)C1C2CCC(C2)C1c1ccccc1 (centres undefined)
0 (no)

Test call for this compound, please: CSc1ccccc1[As](C)C
1 (yes)

Test call for this compound, please: N#CC(C#N)=Cc1ccc(C#N)cc1
0 (no)

Test call for this compound, please: Nc1ccc(Cl)cc1C(=O)c1ccccc1
1 (yes)

###

- MEASUREMENT PROTOCOL: NCI Yeast Anticancer Drug Screen. Data for the CLN2oe strain (AID 163);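 further: 0% = growth of vehicle-only control cultures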
- CONDITION SET: S. cerevisiae CLN2oe strain, at 11.0 µM, hits give high values
This is part of a sample that, as a whole, favours compounds with a hit. Of some 79,000 tested, about 15% had one in any assay. Activity calls are given as the source filed them. No stated cut-off is given here; in the data, active means growth inhibition above about 70%; inactive means the rest.
Below is a list of entries, each paired with its recorded growth inhibition value.

Worked cases, answers included:
>  <COMPOUND>
CC[C@@]1(O)C[C@H](OC2CC(N(C)C)C(O)C(C)O2)c2c(O)c3c(c(O)c2[C@H]1OC1CC(N(C)C)C(O)C(C)O1)C(=O)c1cccc(O)c1C3=O (stereo not given in full)

>  <growth inhibition>
1% (inactive)

$$$$
>  <COMPOUND>
Cc1cccc(NC(=O)CBr)c1

>  <growth inhibition>
96% (active)

$$$$
>  <COMPOUND>
c1c(N2CCOCC2)ssc1=[N+]1CCOCC1

>  <growth inhibition>
3% (inactive)

$$$$
>  <COMPOUND>
COC1C(O)C(C)OC(OC2C(Oc3cccc4c(O)c5c(=O)oc6ccc(C)c7c(=O)oc(c34)c5c67)OC(C)C(O)C2O)C1O (stereo not given)

>  <growth inhibition>
9% (inactive)

$$$$
>  <COMPOUND>
CSC(=Nc1ccccc1)N(c1ccccc1)c1nc(=[N+](C)C)ss1

>  <growth inhibition>
14% (inactive)

$$$$
>  <COMPOUND>
OC(c1ccc(Br)cc1)C(Cl)(Cl)Cl (stereo not given)

>  <growth inhibition>
18% (inactive)

$$$$

Measured growth inhibition of Cc1ccc2c(c1)C1(C)c3cc(C)ccc3SP1S2 (stereo not given) : -14% (inactive)

Measured growth inhibition of O=[N+]([O-])c1ccc(-n2nc3ccc4c(no[n+]4[O-])c3[n+]2[O-])c([N+](=O)[O-])c1 : -6% (inactive)

Measured growth inhibition of C[C@]12CC[C@H](O)CC1=CC[C@@H]1[C@@H]2CC[C@]2(C)C(=O)CC[C@@H]12 : 8% (inactive)

Measured growth inhibition of O=c1c2ccccc2[se]n1-c1cccnc1 : 58% (inactive)
